Measured slope of individual entries
- target desc: Alpha-2C adrenergic receptor (Homo sapiens) (UniProt P18825)
- Sequence (P18825 whole entry, looked up): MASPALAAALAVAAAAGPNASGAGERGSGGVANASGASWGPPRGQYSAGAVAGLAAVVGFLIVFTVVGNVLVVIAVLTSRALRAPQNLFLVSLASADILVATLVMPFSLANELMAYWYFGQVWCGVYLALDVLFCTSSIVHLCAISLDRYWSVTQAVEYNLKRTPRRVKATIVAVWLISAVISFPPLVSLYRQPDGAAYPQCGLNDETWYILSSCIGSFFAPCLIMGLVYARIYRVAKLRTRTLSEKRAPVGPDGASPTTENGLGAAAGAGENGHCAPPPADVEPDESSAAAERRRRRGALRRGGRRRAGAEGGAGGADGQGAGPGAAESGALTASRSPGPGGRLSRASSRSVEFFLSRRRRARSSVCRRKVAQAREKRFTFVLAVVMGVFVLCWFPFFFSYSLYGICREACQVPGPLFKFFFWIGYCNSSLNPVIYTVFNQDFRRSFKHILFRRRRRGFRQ
- assay remarks: compounds altering alpha2C-coupled GIRK flux – cell-based, HEK293 alpha2C/GIRK1/2, thallium flux, primary screen (AID 624);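 note: slope of fluorescence ratio to pre-addition baseline per second over 15 to 24 s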
- recorded conditions: thallium flux BTC fluorescence, at 10 µM, actives lie on both sides
Please reply with the value in numeric form only.

Look up slope: COc1ccc(N=c2scc(-c3ccc(S(=O)(=O)N4CCOCC4)cc3)n2CCCO)cc1
0.00558

# repeat for CC1(C)CC(=O)C2=C(C1)NC(=O)CC2c1ccc(N(CCC#N)CCC#N)cc1 (centres undefined)
0.00771

# repeat for Cc1ccc2[nH]c(=O)c(CN(Cc3ccc4c(c3)OCO4)Cc3nnnn3Cc3ccco3)cc2c1
0.00625

###

- assay remarks: inhibitors of TNFa-induced NFkB p65 translocation, primary screen, imaging, HUVEC, MLSMR starter and 10KST1 sets (AID 438);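 note: compound added about 3h40 before a 20 min TNFalpha stimulation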
- recorded conditions: HUVEC TNFa-induced p65 nuclear translocation; measured here: nuclei count (cytotoxicity indicator), at 2.08 µM
Measured cell count of individual entries
Please reply with the value in numeric form only.

Illustrative cases are given below, each with its answer.
Look up cell count: OC(COc1ccccc1)CN1C2=NCCCN2c2ccccc21 (stereo unspecified)
295

# repeat for COc1ccccc1NC(=O)C(C)NS(=O)(=O)c1ccc(F)cc1 (stereo unspecified)
331

# repeat for O=C(Cc1ccccc1)N1CCCC(c2nc(-c3cccs3)no2)C1 (stereo unspecified)
731

# repeat for CCOC(=O)C1CCCN(CCCc2ccccc2)C1 (stereo unspecified)
361

# repeat for O=C1CC(c2cccc(Cl)c2)Cc2nc(N3CCN(c4ccccc4)CC3)ncc21 (stereo unspecified)
715

***
Look up cell count: Cc1occc1C(=O)N1CCN(Cc2ccccc2)CC1
661

# repeat for CCn1c(SCC(=O)c2ccc(C)cc2)nnc1-c1ccoc1C
446

# repeat for CCc1nnc(-n2nc(C)cc2-c2ccccc2)n1N
648

###

- assay remarks: reduction of polyQ htt aggregates in cells – imaging, exon1htt(103Q)mCFP cells, high-content imaging, primary screen (AID 483);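 note: compound exposure lasted 3 days before fixation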
- recorded conditions: exon1htt(103Q)mCFP cell line, aggregate imaging, at 2 µM
Active and inactive are the calls of the source.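 The calls were made as follows: active = visual image review flags a hit and inhibition of aggregation exceeds 20%; inconclusive = visual hit but inhibition at or below 20%; inactive = no hit on visual image review.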
Outcome field: choose from 1 (yes) (active), 0 (no) (inactive)

Some solved cases for reference:
Dear colleague, could you share the recorded outcome for Cc1cccn2c(=O)c3cc(C(=O)NC4CCCC4)c(=N)n(C4CCCC4)c3nc12 when you have a moment?
0 (no)

# repeat for CC1(C)CC(=O)C(C=Nc2ccc3c(c2)OCO3)=C(O)C1
0 (no)

# repeat for CCOC(=O)N1CCC(N2CC34C=CC(O3)C(C(=O)O)C4C2=O)CC1 (stereo unspecified)
0 (no)

# repeat for Cc1ccc(Cl)cc1N1CCN(C(=O)CN2C(=O)c3cccc4cccc2c34)CC1
0 (no)

# repeat for O=c1cnnc(NCc2ccccc2)[nH]1
0 (no)

# repeat for CC1(C)CC(=O)N(CC(=O)NCc2ccccc2)c2ccccc2S1(=O)=O
0 (no)

# repeat for Cc1ccc(S(=O)(=O)NC(=O)c2cc(C)n(CCCn3ccnc3)c2C)cc1
0 (no)

# repeat for O=C1CCCc2c1cc(C(=O)NCCCN1CCOCC1)c(=O)n2-c1ccc(Cl)cc1
0 (no)

***
Dear colleague, could you share the recorded outcome for COc1ccc(CC(NC(C)=O)C(=O)N2CCN(C(=O)N(C(C)C)C(C)C)CC2)cc1 (stereo unspecified) when you have a moment?
0 (no)

# repeat for O=C(NCN1CCCCC1)c1cccnc1
0 (no)

# repeat for N#CC1=C(N)S[C@H](C(=O)C23CC4CC(CC(C4)C2)C3)[C@H]1c1ccncc1
0 (no)

# repeat for O=C(C1CCCN(S(=O)(=O)c2cccc3nonc23)C1)N1CCC(Cc2ccccc2)CC1 (stereo unspecified)
0 (no)

# repeat for CCc1nc(C)c(C#N)c2cc(OC)c(OC)cc12
0 (no)

# repeat for Cn1cccc1Cc1nnc(SCC(=O)NCc2ccc(F)cc2)n1-c1ccc(F)cc1
0 (no)

# repeat for Cc1ccnc(NC(=O)CCC(=O)N(CC(=O)NC(C)(C)C)C2CCCC2)c1
0 (no)

# repeat for COc1ccccc1NC(=O)NCCCN1CCN(c2cccc(Cl)c2)CC1
0 (no)

# repeat for Cc1onc(-c2c(Cl)cccc2Cl)c1C(=O)N1CCc2ccccc21
0 (no)

# repeat for Cc1ccc(C(C)n2cc(C(=O)NCCN3CCN(C)CC3)nn2)cc1 (stereo unspecified)
0 (no)

# repeat for COc1ccc(-c2cc3ccc(OCc4nn[nH]n4)cc3oc2=O)cc1
0 (no)

# repeat for CN(C)CCNC(=O)c1ccc(COCC(F)(F)F)cc1
0 (no)

# repeat for COC(=O)CCC(=O)Nc1ccc(S(=O)(=O)N2CCCCCC2)cc1
0 (no)

# repeat for CC(=O)NC(Cc1cc(C)ccc1C)C(=O)N1CCN(C(=O)Nc2ccc(C(C)=O)cc2)CC1 (stereo unspecified)
0 (no)

# repeat for CCN(CC)CCOC(=O)c1c(C)oc2ccc(O)cc12
0 (no)

###

- assay remarks: reduction of polyQ htt aggregates in cells – imaging, exon1htt(103Q)mCFP cells, high-content imaging, primary screen (AID 483);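 note: compound exposure lasted 3 days before fixation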;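 for nuclei count: percent of the per-plate median nuclei count of sample wells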
- recorded conditions: exon1htt(103Q)mCFP cell line, aggregate imaging, at 2 µM; measured here: cell count, toxicity
experimental endpoint: nuclei count (%)
Numbers only; they are read as %.

Look up nuclei count: COc1ccc(-c2nc(C#N)c(NCCCN(C)C)o2)cc1OC
99.3

# repeat for COc1cccc(N2CCN(Cc3cccnc3)CC2)c1
96.6

# repeat for CCN(CC)S(=O)(=O)c1ccc(S(=O)(=O)N(Cc2ccccn2)Cc2ccco2)cc1
112

# repeat for CC(C)CCNc1cc(=O)n(C)c(=O)n1C
108

# repeat for Cc1cccc(CC(=O)Nc2c3c(nn2-c2cccc(Cl)c2)CS(=O)C3)c1 (centres undefined)
106

# repeat for CCN(CC)CCOC(=O)c1c(C)oc2ccc(O)cc12
74.1

# repeat for COc1cccc(-c2nnc(NC(=O)Cc3cccs3)s2)c1
79.8

# repeat for CC(C)CNc1oc(-c2ccc(F)cc2)nc1C#N
108

# repeat for CCOc1nc(-c2ccccc2)ccc1-c1noc(-c2ccc(OC)c(OC)c2)n1
99.7

# repeat for CN(C)c1oc(-c2ccccc2Cl)nc1C#N
90.7

# repeat for Cn1c(=O)[nH]c(=O)c2[nH]c(NCCCN3CCOCC3)nc21
92.2

# repeat for CN(Cc1ccccc1)S(=O)(=O)c1ccc(S(=O)(=O)N2CCN(CCC#N)CC2)cc1
111

# repeat for CC1=C(C(N)=O)C(c2ccccn2)n2nc(SCc3ccccc3)nc2N1 (centres undefined)
93

# repeat for Clc1ccc(OCc2nc(-c3ccccn3)no2)c(Br)c1
95

# repeat for Cc1onc(-c2c(Cl)cccc2Cl)c1C(=O)N1CCc2ccccc21
93.6

# repeat for COc1ccccc1NC(=O)NCCCN1CCN(c2cccc(Cl)c2)CC1
112

# repeat for CCCN1C=CC(=C2C(=O)c3ccccc3C2=O)C=C1
44.6

# repeat for N#Cc1c2n(c(=S)n(-c3ccccn3)c1=O)CCCCC2
111

# repeat for CC1CCC(C(=O)NC(C(=O)NCCN2CCC(C)CC2)C(C)C)CC1 (centres undefined)
71.9

# repeat for O=c1oc2ccccc2c2nccnc12
104

# repeat for O=C(OCn1nnc2ccccc2c1=O)C1CCN(S(=O)(=O)c2cccs2)CC1
103

###

- assay remarks: reduction of polyQ htt aggregates in cells – imaging, exon1htt(103Q)mCFP cells, high-content imaging, primary screen (AID 483);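 note: compound exposure lasted 3 days before fixation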
- recorded conditions: exon1htt(103Q)mCFP cell line, aggregate imaging, at 2 µM; stronger effect = higher value
experimental endpoint: inhibition of aggregation (%)
Numbers only; they are read as %.

Look up inhibition of aggregation: CCN(CCCNC(=O)CCNC(=O)Cn1ccc2ccccc2c1=O)c1ccccc1
-6.3

# repeat for O=C(CC1CCS(=O)(=O)C1)Nc1ccc[nH]c1=O (stereo unspecified)
-4.6

# repeat for CSc1ccc(-c2nc(CSCC(=O)N3CCOCC3)c(C)o2)cc1
-6

# repeat for CCNC(=O)CC1C(=O)N(c2ccccc2)C(=O)N1CCC(C)C (stereo unspecified)
3.6

# repeat for Cc1cc(C)cc(NC(=O)CSc2nnc(Cc3cccn3C)n2-c2ccc(F)cc2)c1
36.9

# repeat for CCc1nnc(NC(=O)C2CC(=O)N(Cc3ccco3)C2)s1 (stereo unspecified)
-11.1

# repeat for CC1(C)OC(=O)C(=CNc2ccccc2F)C(=O)O1
29.9

# repeat for CC1CCC(C(=O)NC(C(=O)NCCN2CCC(C)CC2)C(C)C)CC1 (stereo unspecified)
-5.5

# repeat for CCOC(=O)CN1CC23C=CC(O2)C(C(=O)Nc2ccc(C(C)=O)cc2)C3C1=O (stereo unspecified)
-2.6

# repeat for O=C(CSc1nc(-c2ccco2)cc(C(F)(F)F)n1)NCCCn1ccnc1
2.9

# repeat for COc1ccc(C(=O)N2CCSC2=S)cc1OC
-13.4

Just for reference, PubChem BioAssay is where these values come from.
